Documented %Inh across a set of molecules
# System: CAMK2D
# TEST_SETTINGS: concentration: 1 μM, replicates: in singlicate; n = 1;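 also: KINOMEscan kinase panel screen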

MOLECULE | ENDPOINT_UNIT | %Inh
Cl.N#CCc1ccc(Nc2nccc(Nc3ccc(Oc4ccccc4)cc3)n2)cc1 [GW639905] | % | 0
CN1CCN(Cc2ccc(NC(=O)Nc3ccc(N(C)c4ccnc(Nc5ccc(CS(C)(=O)=O)cc5)n4)cc3)cc2)CC1.Cl [GW827654] | % | 9
COc1cc(Nc2ccnc3cc(-c4ccncc4)ccc23)cc(OC)c1OC.Cl [GW494610] | % | 0
CCn1cnc2c(NCc3ccccc3)ncnc21 [SKF-96418] | % | 0
Cc1cc(-c2ccnc(Nc3cccc(C#N)c3)n2)cc(C)c1O [GSK1440913] | % | 31
Cc1ccccc1CC(=O)N1CCc2cc(-c3cn(C)c4ncnc(N)c34)ccc21 [GSK2603346] | % | 0
COc1ccc(NC(=O)c2ccoc2)cc1-c1ccc(C(=O)NCC2CC2)cc1 [GW810437] | % | 0
Nc1ncnc2scc(-c3ccc(NC(=O)Cc4cc(F)ccc4F)cc3)c12.O=C(O)C(F)(F)F [SB-731254-M] | % | 10
Cl.O=C(Nc1ccc(Oc2ccc3[nH]c(NC(=O)c4ccco4)nc3c2)cc1)Nc1cc(C(F)(F)F)ccc1F [GW683134] | % | 0
O=C(Nc1n[nH]c2nc(-c3ccccc3)ccc12)C1CC1 [SB-708999] | % | 100
Cc1ccc(NC(=O)c2cccc(N3CCCCC3)c2)cc1-c1ccc(C(=O)NCC2CC2)cc1 [GSK1917008] | % | 0
c1ccc(Oc2ccc(Nc3ccnc4cc(-c5ccc(CN6CCCCC6)o5)ccc34)cc2)nc1 [GW567143] | % | 0
COc1cccc(-c2nc(-c3ccccc3)[nH]c2-c2ccncc2)c1 [SB-610250] | % | 0
Cc1cccc(Nc2nc(N[C@H]3CCCC[C@H]3N)ncc2C(N)=O)c1.Cl [GSK986310] | % | 16
CCOc1nccc(-c2c(-c3ccc(F)cc3)ncn2C2CCNCC2)n1 [SB-249175] | % | 0
CCn1c(-c2nonc2N)nc2c(-c3ccccc3)ncc(OCCCN)c21.O=C(O)C(F)(F)F.O=C(O)C(F)(F)F [GSK260205] | % | 14
O=C1NC(=O)C(c2ccccc2Cl)=C1Nc1cccc(Cl)c1 [SB-342409] | % | 43
N#CC1(c2cccc(C(=O)Nc3cccc(Oc4ccc5nc(NC(=O)C6CC6)sc5n4)c3)c2)CC1 | % | 20

====

# System: AAK1
# TEST_SETTINGS: concentration: 1 μM, replicates: in singlicate; n = 1
QUANTITY: %Inh (%)

MOL_SMILES | QUANTITY | ENDPOINT_UNIT | REPORTED
Nc1ncc(-c2ccc3nccc(-c4ccncc4)c3c2)cc1S(=O)(=O)N1CCCCC1 | %Inh | % | 0
COc1ccc(C)c(Nc2ccnc(Nc3ccc(-c4cnc[nH]4)cc3)n2)c1.Cl | %Inh | % | 29
O=C(Nc1n[nH]c2cc(-c3cccs3)ccc12)C1CC1 | %Inh | % | 73
COc1cccc(C2=C(Nc3cccc(O)c3)C(=O)NC2=O)c1 | %Inh | % | 38
CN(c1ccc(NC(=O)N2CCN(CCCN3CCOCC3)CC2)cc1)c1ccnc(Nc2ccc(CS(C)(=O)=O)cc2)n1.Cl | %Inh | % | 55
Cc1cccc(Nc2nc(N[C@H]3CCCC[C@H]3N)ncc2C(N)=O)c1.Cl | %Inh | % | 55
Cc1ccc(NC(=O)c2ccnc(N3CCCCC3)c2)cc1-c1ccc(C(=O)NCC2CC2)cc1 | %Inh | % | 0
CN(c1ccc(F)c(NC(=O)c2cccc(OC(C)(C)C#N)c2Cl)c1)c1ccc2nc(NC(=O)C3CC3)sc2n1 | %Inh | % | 2

====

# Test system: RIPK4
# TEST_SETTINGS: concentration: 1 μM, replicates: in singlicate; n = 1
Response field class: string, computed from recorded %Inh by ranges bucket A: < 5%; bucket B: ≥ 5% and < 40%; bucket C: ≥ 40%

MOLECULE | SYSTEM_TESTED | GROUP
CN(c1ccc(NC(=O)N2CCN(CCCN3CCOCC3)CC2)cc1)c1ccnc(Nc2ccc(CS(C)(=O)=O)cc2)n1.Cl | RIPK4 | bucket C
CCOc1nccc(-c2c(-c3ccc(F)cc3)ncn2C2CCNCC2)n1 | RIPK4 | bucket C
Cl.O=C(Nc1ccc(Oc2ccc3[nH]c(NC(=O)c4ccco4)nc3c2)cc1)Nc1cc(C(F)(F)F)ccc1F | RIPK4 | bucket B
O=C1NC(=O)C(c2ccccc2Cl)=C1Nc1cccc(Cl)c1 | RIPK4 | bucket B
Fc1cc(Cl)ccc1Nc1ccnc2cc(-c3ccc(CN4CCSCC4)o3)ccc12 | RIPK4 | bucket A
Nc1ncc(-c2cn[nH]c2)c2scc(-c3ccc4c(c3)CCN4C(=O)Cc3ccccc3)c12 | RIPK4 | bucket A
CN1CCN(Cc2ccc(NC(=O)Nc3ccc(N(C)c4ccnc(Nc5ccc(CS(C)(=O)=O)cc5)n4)cc3)cc2)CC1.Cl | RIPK4 | bucket C
COc1cc(Nc2nccc(N3CCC(NS(=O)(=O)c4ccc(NC(C)=O)cc4)CC3)n2)cc(OC)c1OC | RIPK4 | bucket C
COC(=O)Nc1nc2ccc(Oc3ccc(NC(=O)Nc4cc(C(F)(F)F)ccc4F)cc3)cc2[nH]1.Cl | RIPK4 | bucket B
CCn1c(-c2nonc2N)nc2c(-c3ccccc3)ncc(OCCCN)c21.O=C(O)C(F)(F)F.O=C(O)C(F)(F)F | RIPK4 | bucket B
CN(c1ccc2c(c1)nc(NCc1ccccc1)n2C)c1ccnc(Nc2ccc(CS(C)(=O)=O)cc2)n1.Cl | RIPK4 | bucket C
O=C(Nc1n[nH]c2nc(-c3cccc(O)c3)ccc12)C1CC1 | RIPK4 | bucket B
Cl.Cl.NCC(NC(=O)c1cc(-c2cccnc2)c(-c2ccnc3[nH]ccc23)s1)c1ccccc1 (stereo not drawn) | RIPK4 | bucket B
CCNC(=O)/C=C/c1n[nH]c2cc(Sc3ccccc3C(=O)NC)ccc12 | RIPK4 | bucket A
CCNc1nccc(-c2c(-c3ccc(F)cc3)ncn2C2CCN(C)CC2)n1 | RIPK4 | bucket A
N#Cc1cnc2cc(-c3cnc(CNCCN4CCOCC4)s3)ccc2c1Nc1ccc(Oc2ccccc2)cc1 | RIPK4 | bucket B
COc1cccc(CC(=O)N2CCc3cc(-c4cn(C)c5ncnc(N)c45)ccc32)c1 | RIPK4 | bucket A
COC(=O)Nc1nc2cc(Oc3ccc(NC(=O)Nc4cccc(SC)c4)cc3)ccc2[nH]1.Cl | RIPK4 | bucket A

====

Documented %Inh across a set of molecules
# Tested on: EPHA6
# TEST_SETTINGS: concentration: 1 μM, replicates: in singlicate; n = 1

MOLECULE | %Inh (%)
CN(c1ccc(NC(=O)N2CCN(CCCN3CCOCC3)CC2)cc1)c1ccnc(Nc2ccc(CS(C)(=O)=O)cc2)n1.Cl | 0
CNc1nccc(-c2ccc3c(N)n[nH]c3c2)n1 | 0
CN(C)CCOc1ccc(-c2cc(-c3ccc(Cl)c(O)c3)c(-c3ccncc3)[nH]2)cc1.Cl.Cl | 32
Nc1ncc(-c2ccc3nccc(-c4ccncc4)c3c2)cc1S(=O)(=O)N1CCCCC1 | 0
Fc1cc(Cl)ccc1Nc1ccnc2cc(-c3ccc(CN4CCSCC4)o3)ccc12 | 52
Cl.Cl.NCC(NC(=O)c1cc(-c2cccnc2)c(-c2ccnc3[nH]ccc23)s1)c1ccccc1 (centres unmarked) | 2
Nc1cccc(-c2ccc3c(N)n[nH]c3c2)c1 | 3
CCn1c(-c2nonc2N)nc2c(-c3ccccc3)ncc(OCCCN)c21.O=C(O)C(F)(F)F.O=C(O)C(F)(F)F | 0

====

Documented %Inh across a set of compounds
# Test system: MAP4K5
# TEST_SETTINGS: concentration: 1 μM, replicates: in singlicate; n = 1

COMPOUND | %Inh (%)
Cc1cc(-c2c(-c3ccc(F)cc3)ncn2CCCN2CCOCC2)nc(N)n1 [SB-222517] | 0
CCOc1nccc(-c2c(-c3ccc(F)cc3)ncn2C2CCNCC2)n1 [SB-249175] | 27
CC(C)(C)c1ccc(C(=O)Nc2cn3cc(-n4ccnc4)ccc3n2)cc1 | 0
CN(C)CCNS(=O)(=O)c1ccc(-c2ccnc3[nH]ccc23)cc1 [GSK977620] | 8
COC(=O)Nc1nc2ccc(Oc3ccc(CC(=O)Nc4cc(C(F)(F)F)ccc4F)cc3)cc2[nH]1 [GW680903] | 0
CC(C)c1nc(-c2ccc(F)c(NS(=O)(=O)c3c(F)cccc3F)c2)c(-c2ccnc(Nc3ccc(N4CCOCC4)nc3)n2)s1 [GSK1804250] | 58
Cc1cccc(Nc2nc(NCCN)ncc2C(N)=O)c1 [GSK1292139] | 26
Nc1ncc(-c2cn[nH]c2)c2scc(-c3ccc4c(c3)CCN4C(=O)Cc3ccccc3)c12 [GSK2593067] | 99.6
Cc1nn2c(=O)cc(N3CCO[C@H](C)C3)nc2n1Cc1cccc(Cl)c1Cl [GSK2373693] | 10
Cl.O=C(Nc1ccc(Oc2ccc3[nH]c(NC(=O)c4ccco4)nc3c2)cc1)Nc1cc(C(F)(F)F)ccc1F [GW683134] | 32
O=C(Nc1n[nH]c2nc(-c3ccccc3)ccc12)C1CC1 [SB-708999] | 12
COC(=O)Nc1nc2ccc(Oc3ccc(NC(=O)Nc4cc(C(F)(F)F)ccc4F)cc3)cc2[nH]1.Cl [GW654607] | 11

src = paper PMC5540273
